Known log10 MIC of a selection of compounds
System: Staphylococcus aureus
Assay: Minimum inhibitory concentration (MIC) against methicillin-resistant Staphylococcus aureus (MRSA) OC2878
Type: functional
Log scale reminder: MIC in µg/mL, then log10 taken.

# count of solved cases: 5
> print(dat)
                                   compound  value.reported
1  CC(=O)NC[C@H]1CN(c2ccc(C3=NOC(C(N)=O)C3)c(F)c2)C(=O)O1 (some centres undefined)            0.30
2  CC(=O)NC[C@H]1CN(c2ccc(C3=NOC(c4ccccn4)C3)c(F)c2)C(=O)O1 (some centres undefined)            0.30
3  CC(=O)NC[C@H]1CN(c2ccc(C3=NOC(c4ccncc4)C3)c(F)c2)C(=O)O1 (some centres undefined)            0.00
4  CC(=O)NC[C@H]1CN(c2ccc(C3=NOC(CN4CCN(C(C)=O)CC4)C3)c(F)c2)C(=O)O1 (some centres undefined)            0.90
5  CC(=O)NC[C@H]1CN(c2ccc(-c3cc(-c4ccccn4)on3)c(F)c2)C(=O)O1            0.30

Entry CC(=O)NCC1CC(c2ccc(N3C[C@H](CNC(C)=O)OC3=O)cc2F)=NO1 (some centres undefined) has what log10 MIC?
1.20

Which value of log10 MIC has been reported for CNC(=O)C1CC(c2ccc(N3C[C@H](CNC(C)=O)OC3=O)cc2F)=NO1 (some centres undefined) in the records?
0.60

Query: log10 MIC; subject: CCOC(=O)C1CC(c2ccc(N3C[C@H](CNC(C)=O)OC3=O)cc2F)=NO1 (some centres undefined)
0.60

Reported log10 MIC, compound CC(=O)NC[C@H]1CN(c2ccc(C3=NOC(C#N)C3)c(F)c2)C(=O)O1 (some centres undefined) : ____
0.00
